# GI50 listing for each entry below
Test system: MDA-N
Assay: NCI tumour cell line growth inhibition, 48 h
Calls of active or inactive are those of the source. Cut-off read from the data, not from the text of the source: active = GI50 up to about 1.1 µM and inactive = higher. Residues, ends and D or L forms follow the SMILES beside them. Groups on a side chain read outwards from the residue. *: point of attachment. Cbz = O=C(OCc1ccccc1)*; Boc = CC(C)(C)OC(=O)*

molecule	GI50
COc1cc2c(cc1OC)C(OC)N(C)c1c-2ccc2cc3c(cc12)OCO3 (stereo not given)	13.6 µM (inactive)
CC(C)CC(NC(=O)OCc1ccccc1)C(=O)NCCCCC(NC(=O)C(CCCCNC(=O)C(CC(C)C)NC(=O)OCc1ccccc1)NC(=O)C(CCCCNC(=O)C(CC(C)C)NC(=O)OCc1ccccc1)NC(=O)C(CCCCNC(=O)C(CC(C)C)NC(=O)OCc1ccccc1)NC(=O)OC(C)(C)C)C(=O)O (stereo not given) (Boc-K([Leu-Cbz])K([Leu-Cbz])K([Leu-Cbz])K([Leu-Cbz])-OH; configuration not given here)	> 25 µM (inactive)
C1CCC2(CC1)O[C@@H]1[C@@H](O2)[C@@H](O[C@H]2O[C@@H]3COC4(CCCCC4)O[C@H]3[C@@H]3OC4(CCCCC4)O[C@@H]23)O[C@@H]2COC3(CCCCC3)O[C@@H]12	> 100 µM (inactive)
Nc1ccc(-c2ccc(Nc3cc(S(=O)(=O)O)c(N)c4c3C(=O)c3ccccc3C4=O)cc2)c(S(=O)(=O)O)c1	> 100 µM (inactive)
c1ccc(CSP234N5CCN2CCN3CCN4CC5)c(CSP234N5CCN2CCN3CCN4CC5)c1	13.4 µM (inactive)
CC(=O)c1sc(Nc2ccc(Cl)c(Cl)c2)nc1C	> 100 µM (inactive)
OC1COC(n2c3ccc(Br)cc3c3ccc4c5ccccc5[nH]c4c32)C(O)C1O (stereo not given)	4.4 µM (inactive)
CC(C)(C)OC(=O)NCCNC(=O)CN(CC(=O)O)C1CCCCC1N(CC(=O)O)CC(=O)O (stereo not given)	> 100 µM (inactive)
CN(C)Nc1cc(=O)[nH]c(=O)[nH]1	> 100 µM (inactive)
CCOC(=O)/C(C#N)=C/c1ccnc2ccccc12	> 100 µM (inactive)
O=C(Nc1ccc(N2C(=O)CSC2c2cccs2)cc1)c1ccc(N2C(=O)CSC2c2cccs2)cc1 (stereo not given)	> 100 µM (inactive)
NC(CSCc1ccc(I)cc1)C(=O)O (stereo not given)	> 100 µM (inactive)
C#CC(O)/C=C/CCCCCCC#CC/C=C\CC#CCCCCCC/C=C/C(O)C#C (stereo not given)	2.24 µM (inactive)
Cc1nc2cccc([N+](=O)[O-])c2c(NCCCN(C)C)c1C	26.7 µM (inactive)
C/C=C/C(=O)N1C(=O)OC[C@@H]1c1ccccc1	20.7 µM (inactive)
COC1C=COC2(C)Oc3c(C)c(O)c4c(c3C2=O)/C(=N/C2CCC(O)OC2C)C=C(NC(=O)/C(C)=C\C(=O)C2CC2C(O)C(C)C(O)C(C)C(OC(C)=O)C1C)C4=O (stereo not given)	1.88 µM (inactive)
O=[As]O	> 100 µM (inactive)
COC(=O)CCC(=O)c1ccc2c(c1)CC1(C2)Cc2ccc(C(=O)CCC(=O)OC)cc2C1	73.1 µM (inactive)
Cn1c(COC(=O)Nc2ccccc2)c(COC(=O)Nc2ccccc2)c2ccc3cc(Cl)c(Cl)cc3c21	8.07 µM (inactive)
CN(C)CCNC1=CC(=O)c2c(O)ccc(O)c2C1=O	1.97 µM (inactive)
